// reported normalised cell number for each item listed
assayNotes: differential killing of epithelial or mesenchymal cells, primary screen, imaging, PC-3E GFP, TEM4-18 mCherry, co-culture (AID 1345086);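 also: cells exposed to compound for 72 h before imaging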
conditionSet: imaging cell counts, measured here: epithelial PC-3E GFP cell survival, at 1 µM
Form: value (number only, do not type unit).

Previously resolved entries follow.
{"compound": "CC[C@H]1CN2CCc3cc(OC)c(OC)cc3C2C[C@@H]1CC1NCCc2cc(OC)c(OC)cc21 (stereo partly drawn)", "normalised cell number": 0.22}
{"compound": "CC(C)[C@@H]1CC[C@]2(CO2)[C@@H]2C(=O)OCC(C(=O)O)=C[C@H]21", "normalised cell number": 1.02}
{"compound": "COC(=O)[C@H](Cc1ccccc1)NC(=O)/C(=C1\\OC(=O)C(c2ccccc2)=C1O)c1ccccc1", "normalised cell number": 0.92}

Next, consider the following compound.
q: Give the reported value of normalised cell number for this record: O=C(/C=C/c1ccccc1)O[C@H]1C[C@@H](O)[C@]2(O)C=CO[C@@H](O[C@@H]3O[C@H](CO)[C@@H](O)[C@H](O)[C@H]3O)C12 (stereo partly drawn)
a: 0.87
